measured on: AAV8 (adeno-associated virus serotype 8)
method description: SPR, AAV on CM5 chip
test readout: kon (M⁻¹ s⁻¹)
Respond numerically; units are M⁻¹ s⁻¹ and should not be typed.

Exam item: Bench note: what kon did A4-C8 (bispecific antibody) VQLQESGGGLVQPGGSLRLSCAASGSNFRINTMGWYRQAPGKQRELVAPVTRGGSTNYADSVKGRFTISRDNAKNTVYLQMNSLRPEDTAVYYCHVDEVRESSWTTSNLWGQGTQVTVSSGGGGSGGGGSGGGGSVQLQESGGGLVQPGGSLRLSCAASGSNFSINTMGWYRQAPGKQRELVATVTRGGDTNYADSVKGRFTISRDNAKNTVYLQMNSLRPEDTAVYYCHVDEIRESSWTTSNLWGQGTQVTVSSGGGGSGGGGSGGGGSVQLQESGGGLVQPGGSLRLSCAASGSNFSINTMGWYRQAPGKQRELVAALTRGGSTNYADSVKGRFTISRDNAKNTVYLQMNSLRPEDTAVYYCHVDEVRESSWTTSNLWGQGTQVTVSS show?
Marked response: 132000
